# key: entry, value: growth
# System: OVCAR-4 ovarian
# assay.overview: NCI-60 one-dose screen, 48 h (100 = growth as untreated, 0 = no growth, -100 = all killed)
# test.conditions: 10 µM unless noted
The panel holds about 83,000 compounds, 20% with a hit somewhere; the sample as a whole holds those more often.
Write down the numeric answer in % and omit the unit.

compound: O=C(c1ccncc1)N1N=C(c2ccc(Cl)cc2)C[C@H]1c1cn(-c2ccccc2)nc1-c1ccccc1
measurement.units: %
reported.measurement: 82.6
--
compound: CSc1nc2ccccc2cc1/C=C1/C=C(c2ccccc2)NC1=O
measurement.units: %
reported.measurement: 84.7

-- ask For the compound COc1ccc2c(c1)N(CCO)C1=C(C(=O)OC1)C2c1cccc(F)c1 (stereo not given) , report growth.
-- reply 51.5

-- ask For the compound Ic1ccc(OCCCCn2ccnc2)cc1 , report growth.
-- reply 44.7

-- ask For the compound Cc1c(-c2ccc(O)cc2)n(Cc2ccc(OCCN3CCCCCC3)cc2)c2ccc(O)cc12 , report growth.
-- reply 78.1
